Data provenance is PubChem BioAssay (NCATS).

# assay_text: qHTS for Inhibitors of Plasmodium falciparum (7G8) proliferation (AID 504316); also: nearly all actives have a fitted effect of over 65% in size
# applied_conditions: P. falciparum 7G8 in erythrocytes, SYBR Green DNA, 72 h; series mostly up to 6.7 µM
Inconclusive results are not listed. Calls of active or inactive are those of the source. Calls follow the shape of the dose curve; as a rule, active = well fitted inhibition curve with a large enough effect; inconclusive = small, poorly fitted or top-dose-only effect; inactive = flat fitted curve, though single readings scatter.
Labels: active, inactive

>  <compound>
COc1cc2c(cc1OC)C1OC(c3ccsc3)(C2)Oc2cc(C)oc(=O)c21 (centres undefined)

>  <label_class>
inactive

$$$$
>  <compound>
CC(C)=CCN1C(=O)[C@]2(OCCC=C[C@H]2C)c2c(Br)cccc21

>  <label_class>
inactive

$$$$
>  <compound>
COCCN1C(=O)N[C@@H](c2ccccc2)[C@H](C(C)=O)[C@H]1C

>  <label_class>
inactive

$$$$
>  <compound>
Cc1cc(C)cc(CO[C@H]2C=C[C@@H](c3ccccc3)O[C@H]2CO)c1

>  <label_class>
inactive

$$$$
>  <compound>
C=CC[C@@H]1C=C(C(=O)OC)N(C(=O)C(F)(F)F)[C@@H](c2ccccc2Br)[C@@H]1C

>  <label_class>
inactive

$$$$
>  <compound>
C=CCOCCC=C1c2ccccc2[C@@H](OC)[C@@H]1C

>  <label_class>
active

$$$$
>  <compound>
CCN1C(=NCc2ccco2)N[C@@H](CCc2ccccc2)[C@H](C(=O)OC)[C@H]1C

>  <label_class>
inactive

$$$$
>  <compound>
COc1ccc(O[C@@H]2[C@H](O)CO[C@@H]2C=CC#Cc2ccccc2)cc1

>  <label_class>
inactive

$$$$
>  <compound>
CC1=CC[C@@H](COc2ccccc2)O[C@@]2(C1)C(=O)Nc1cccc(Br)c12

>  <label_class>
inactive

$$$$
>  <compound>
CC1(OC(=O)CCc2ccccc2)C(=O)C=C2C=C(c3ccsc3)OC=C2C1=O (centres undefined)

>  <label_class>
inactive

$$$$
>  <compound>
COC(=O)[C@H]1O[C@@H](c2cc(OC)c(C)c(OC)c2O)[C@H](C)[C@@H](O)[C@@H]1C

>  <label_class>
inactive

$$$$
>  <compound>
CCN1C(=O)NC(c2cccs2)C(C(=O)OC)=C1C (centres undefined)

>  <label_class>
inactive

$$$$
>  <compound>
C=C[C@H]1CCC=C2C(=O)CCC[C@H]21

>  <label_class>
active

$$$$
>  <compound>
O=C1c2ccccc2C(=O)N1CCCC[C@]12Cc3c(ccc4ccccc34)[C@H](O1)c1c(cc(-c3ccccc3)oc1=O)O2

>  <label_class>
active

$$$$
>  <compound>
COc1ccc(-c2nc(-c3ccccc3)oc2Nc2ccc3ccccc3c2)cc1

>  <label_class>
inactive

$$$$
>  <compound>
COCCN1C(=O)NC(c2ccco2)C(C(=O)OC)=C1C (centres undefined)

>  <label_class>
inactive

$$$$
>  <compound>
C=CC1=C2C=C(C3CC3)N(CCCOC(C)C)C=C2C(=O)C(C)(OC(=O)c2ccco2)C1=O (centres undefined)

>  <label_class>
inactive

$$$$
>  <compound>
C=CC[C@@H]1C=C[C@H](ON=C(C)CCN2CCc3nc(CC)c(CC)cc3C2)[C@H](CO)O1

>  <label_class>
active

$$$$
>  <compound>
COC1=C[C@H](C(=O)N[C@H]2CCCC[C@H]2NC(C)=O)[C@H](C)[C@@H](c2ccccc2)CC1=O

>  <label_class>
inactive

$$$$
>  <compound>
CCOC(=O)CNC(=O)O[C@@H]1C(=O)c2cc(OC)ccc2O[C@H]1c1cccc(OC)c1

>  <label_class>
inactive

$$$$
>  <compound>
CCN1C(=O)NC(c2ccc(Br)cc2)C(C(C)=O)=C1C (centres undefined)

>  <label_class>
inactive

$$$$
>  <compound>
C=C(Nc1ccc(OC)cc1)C(=O)OC

>  <label_class>
inactive

$$$$
>  <compound>
COC(=O)C[C@H]1c2ccccc2[C@@H]2C(=C[C@@H](C)[C@H]3C(=O)N(c4ccccc4)C(=O)[C@H]32)N1C(=O)OC

>  <label_class>
inactive

$$$$
>  <compound>
C#CCN1C(=O)C2(CC(C)=C[C@@H](C)O2)c2c(Br)cccc21 (some centres undefined)

>  <label_class>
inactive

$$$$
>  <compound>
COC(=O)CCCC1=CC2=C(c3ccccc3)C(=O)C(C)(OC(=O)C3CCCC3)C(=O)C2=CN1Cc1ccc2c(c1)OCO2 (centres undefined)

>  <label_class>
inactive

$$$$
>  <compound>
COC1=C[C@H](C(=O)NCc2ccc(OC)cc2)C(C)C(c2ccccc2)CC1=O (some centres undefined)

>  <label_class>
inactive

$$$$
>  <compound>
COc1ccc2c(c1)O[C@@H](c1ccc3c(c1)OCO3)[C@H](O)C2=O

>  <label_class>
inactive

$$$$
>  <compound>
C=C(C[C@@]1(C(=O)OC)C=C[C@@H](C)[C@H](c2ccccc2Br)N1C(=O)C(F)(F)F)c1ccccc1

>  <label_class>
active

$$$$
>  <compound>
CC=COC(=O)N[C@@H](c1ccccc1)[C@]1(C(=O)OCC)CCCC1=O

>  <label_class>
inactive

$$$$
